experimental_target: CDK12–cyclin K and DDB1 (Homo sapiens, UniProt Q16531+Q9NYV4, K965R)
Construct: His6–CDK12 (a.a. 713–1,052); full-length or beta-propeller B domain deletion (ΔBPB: a.a. 396–705 deleted) constructs of His6–DDB1ΔBPB, StrepII–Avi–DDB1, or His6–Spy–DDB1; made in house; host or cells: Trichoplusia ni High Five insect cells (baculovirus)
Sequence (Q9NYV4 713-1052 K965R): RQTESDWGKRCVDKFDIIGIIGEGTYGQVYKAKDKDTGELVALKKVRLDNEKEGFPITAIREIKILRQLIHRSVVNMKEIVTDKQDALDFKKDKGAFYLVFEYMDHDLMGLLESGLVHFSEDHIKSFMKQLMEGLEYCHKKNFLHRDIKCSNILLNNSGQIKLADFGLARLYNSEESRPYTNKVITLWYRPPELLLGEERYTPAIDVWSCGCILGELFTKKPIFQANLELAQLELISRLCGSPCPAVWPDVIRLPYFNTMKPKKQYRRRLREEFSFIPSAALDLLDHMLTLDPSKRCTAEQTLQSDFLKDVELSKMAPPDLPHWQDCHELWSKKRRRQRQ
Sequence (O75909 1-267 partner): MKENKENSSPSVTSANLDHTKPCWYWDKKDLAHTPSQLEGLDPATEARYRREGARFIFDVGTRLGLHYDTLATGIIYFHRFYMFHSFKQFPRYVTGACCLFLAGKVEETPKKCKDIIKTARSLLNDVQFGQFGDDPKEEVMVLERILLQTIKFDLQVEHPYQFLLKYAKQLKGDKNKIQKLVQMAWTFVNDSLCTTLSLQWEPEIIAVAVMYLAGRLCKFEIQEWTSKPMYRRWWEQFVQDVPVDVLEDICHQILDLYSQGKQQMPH
Sequence (Q16531 whole entry): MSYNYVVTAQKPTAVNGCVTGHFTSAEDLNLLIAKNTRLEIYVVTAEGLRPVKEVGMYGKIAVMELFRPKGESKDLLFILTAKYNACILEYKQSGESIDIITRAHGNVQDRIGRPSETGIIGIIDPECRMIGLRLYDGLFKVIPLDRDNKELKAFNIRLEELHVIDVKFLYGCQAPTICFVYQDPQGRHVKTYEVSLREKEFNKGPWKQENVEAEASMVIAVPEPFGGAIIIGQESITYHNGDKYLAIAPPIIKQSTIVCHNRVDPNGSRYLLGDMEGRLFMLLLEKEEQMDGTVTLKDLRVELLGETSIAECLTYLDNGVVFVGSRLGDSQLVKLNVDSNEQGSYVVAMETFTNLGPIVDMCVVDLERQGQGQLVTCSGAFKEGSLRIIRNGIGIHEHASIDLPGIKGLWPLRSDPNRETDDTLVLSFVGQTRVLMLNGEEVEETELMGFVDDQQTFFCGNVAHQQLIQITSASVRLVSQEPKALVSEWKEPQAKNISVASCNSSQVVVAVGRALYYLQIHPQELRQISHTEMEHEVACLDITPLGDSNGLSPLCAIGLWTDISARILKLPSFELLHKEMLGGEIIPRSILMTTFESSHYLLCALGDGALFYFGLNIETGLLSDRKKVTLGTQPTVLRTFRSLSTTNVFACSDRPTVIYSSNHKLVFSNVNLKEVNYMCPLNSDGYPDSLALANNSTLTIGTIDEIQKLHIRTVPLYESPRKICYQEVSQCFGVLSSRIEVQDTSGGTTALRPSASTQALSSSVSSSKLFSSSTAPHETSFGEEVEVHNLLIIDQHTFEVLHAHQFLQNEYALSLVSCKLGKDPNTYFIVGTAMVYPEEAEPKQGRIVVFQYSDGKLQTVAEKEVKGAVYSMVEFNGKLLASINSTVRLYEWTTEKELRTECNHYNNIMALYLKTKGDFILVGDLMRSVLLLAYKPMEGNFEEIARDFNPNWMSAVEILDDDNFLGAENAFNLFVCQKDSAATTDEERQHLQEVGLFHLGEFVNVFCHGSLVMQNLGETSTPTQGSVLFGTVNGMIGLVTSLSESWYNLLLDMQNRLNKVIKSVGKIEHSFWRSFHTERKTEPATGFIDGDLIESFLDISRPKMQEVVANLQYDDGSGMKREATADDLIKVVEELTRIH
assay_text: TR-FRET Kd determination, quadratic fit, 50 nM or 10 nM CDK12–cyclin K
Format: binding
measurement_parameters: 10 nM CDK12-cyclin K; compound 62.6399 nM
Item-by-item account of TR-FRET signal
outcome_measure: TR-FRET signal

1) CC[C@H](CO)Nc1nc(NCc2nc3cc(Cl)c(Cl)cc3[nH]2)c2ncn(C(C)C)c2n1
0.5693
2) Cc1cc2nc(CNc3nc(N4CCN(C)CC4)nc4c(Br)cnn34)[nH]c2cc1C [DS73, reference compound]
0.5247
3) CCC(CO)Nc1nc(NCc2ccc(-c3ccccn3)cc2)c2ncn(C(C)C)c2n1 (stereo not shown) [CR8, reference compound]
0.4778
4) CCC(CO)Nc1nc(NCc2ccc(-c3ccccc3)cc2)c2ncn(C(C)C)c2n1 (stereo not shown)
0.4639

----------
System: cyclin K–eGFP degradation reporter
assay_text: Cyclin K reporter stability analysis (dual-color cyclin K–eGFP reporter)
Type: cell-based, human
measurement_parameters: source data sheet correlations; read-out: DC50
Procedure: HEK293T–Cas9 cells expressing the cyclin K–eGFP degradation reporter were resuspended at 1 × 10^6 ml^−1 and 50 µl of cell suspension was seeded in non-cell-culture-treated 384-well plates. Shortly after, cells were treated with drug or DMSO for 5 h. […] The fluorescent signal was quantified by flow cytometry (LSRFortessa flow cytometer, BD Biosciences). […]
// values below are reported DC50
outcome_measure: DC50 (nM)

1) CC[C@H](CO)Nc1nc(NCCCCCc2ccccc2)c2ncn(C(C)C)c2n1 [DS02]
1780
2) CC[C@H](CO)Nc1nc(NCc2cnc(-c3ccccn3)cc2C2OCCO2)c2ncn(C(C)C)c2n1 [WX4]
365
3) CC[C@H](CO)Nc1nc(NCCCc2cccc(C)c2)c2ncn(C(C)C)c2n1 [DS30]
78
4) CC(C)n1cnc2c(NCc3ccc(-c4ccccn4)cc3)nc(N3CCOCC3)nc21 [DS19]
62
5) Cc1cc2nc(CNc3nc(N4CCN(C)CC4)nc4c(Br)cnn34)[nH]c2cc1C [DS73, reference compound]
1
6) COc1ccccc1CCNC(=O)CNc1nc(NCc2ccc(-c3ccccn3)cc2)c2ncn(C(C)C)c2n1 [DS50]
3570
7) Cn1cc(-n2cnc3c(NCc4ccc(-c5ccccn5)cc4)nc(N4CCOCC4)nc32)cn1 [DS21]
3120
8) CC[C@H](CO)Nc1nc(NCc2ccc(-c3cccnc3)cc2)c2ncn(C(C)C)c2n1 [DS45]
36
9) Cc1cccc(Nc2nc(CC(=O)Nc3ncc(C)s3)cs2)n1 [HQ461]
493

----------
experimental_target: CDK12–cyclin K and DDB1 (Homo sapiens, UniProt Q16531+Q9NYV4, K965R)
Construct: His6–CDK12 (a.a. 713–1,052); full-length or beta-propeller B domain deletion (ΔBPB: a.a. 396–705 deleted) constructs of His6–DDB1ΔBPB, StrepII–Avi–DDB1, or His6–Spy–DDB1; made in house; host or cells: Trichoplusia ni High Five insect cells (baculovirus)
assay_text: TR-FRET ternary complex formation assay (compound titration)
Type: binding
measurement_parameters: Supplementary Table 2; read-out: TR-FRET EC50 TR-FRET
Text: A 70 μs delay was employed to reduce background fluorescence. The TR-FRET signal was obtained through calculating the ratio of 520 nm to 490 nm fluorescence, and Prism 9 (GraphPad) was used for further data analysis.
outcome_measure: EC50 (nM)

1. CC[C@H](CO)Nc1nc(NCc2ccc(CN(C)C)cc2)c2ncn(C(C)C)c2n1 [DS07]
285
2. CC[C@H](CO)Nc1nc(NCCCc2ccnn2C)c2ncn(C(C)C)c2n1 [DS35]
246
3. CC(C)n1cnc2c(NCc3ccc(-c4ccccn4)cc3)nc(NCCCCCC(=O)N[C@H]3O[C@H](CO)[C@@H](O)[C@H](O)[C@H]3O)nc21 [DS51]
274
